Task for the reader: assign each of the following compounds its reported Activity.
# Tested on: Radical scavenging activity
# Method description: Antioxidant activity assessed as DPPH free radical scavenging activity at 100 ug/ml after 30 min relative to control
# Type: functional
Quick note: give the figure in %, leave out the unit.

Activity for `O=C1O[C@H]([C@@H](O)CO)C(O)=C1O` is 74.1

Activity for `C/C=N/CC1(CC(=O)O)CCCCC1` is 31.4

Activity for `C/C(=N\CC1(CC(=O)O)CCCCC1)c1cccc(C#N)c1` is 30.6

Activity for `C=NCC1(CC(=O)O)CCCCC1` is 30.2

Activity for `O=C(O)CC1(C/N=C/c2ccccc2Cl)CCCCC1` is 45.1

Activity for `CCOc1ccc(/C=N/CC2(CC(=O)O)CCCCC2)cc1` is 55.6

Activity for `C/C(=N\CC1(CC(=O)O)CCCCC1)c1ccccn1` is 31.1

Activity for `O=C(O)CC1(C/N=C/c2ccc(F)cc2)CCCCC1` is 44.7

Activity for `COc1ccc(/C=N/CC2(CC(=O)O)CCCCC2)cc1` is 49.6

Activity for `C/C(=N\CC1(CC(=O)O)CCCCC1)c1cccnc1` is 30.8

Activity for `COc1cc(/C=N/CC2(CC(=O)O)CCCCC2)ccc1O` is 57.2

Activity for `O=C(O)CC1(C/N=C/c2ccccn2)CCCCC1` is 40

Activity for `O=C(O)CC1(C/N=C/c2ccccc2O)CCCCC1` is 51

Activity for `O=C(O)CC1(C/N=C/c2c(F)cccc2Cl)CCCCC1` is 47.2

Activity for `O=C(O)CC1(C/N=C/c2ccccc2)CCCCC1` is 30.1

Activity for `CCOc1ccc(/C(C)=N/CC2(CC(=O)O)CCCCC2)cc1` is 55.8

Activity for `C/C(=N\CC1(CC(=O)O)CCCCC1)c1ccc2ccccc2c1` is 28.5

Activity for `C/C(=N\CC1(CC(=O)O)CCCCC1)c1c[nH]c2ccccc12` is 32.7
